Numbers sourced from patent US11884627B2.

What pIC50 was measured for each of the following?
EXPERIMENTAL_TARGET: human LPA1 (Homo sapiens, UniProt Q92633)
Construct: expressed in transfected cells; host or cells: CHO-K1
Sequence (Q92633 whole entry): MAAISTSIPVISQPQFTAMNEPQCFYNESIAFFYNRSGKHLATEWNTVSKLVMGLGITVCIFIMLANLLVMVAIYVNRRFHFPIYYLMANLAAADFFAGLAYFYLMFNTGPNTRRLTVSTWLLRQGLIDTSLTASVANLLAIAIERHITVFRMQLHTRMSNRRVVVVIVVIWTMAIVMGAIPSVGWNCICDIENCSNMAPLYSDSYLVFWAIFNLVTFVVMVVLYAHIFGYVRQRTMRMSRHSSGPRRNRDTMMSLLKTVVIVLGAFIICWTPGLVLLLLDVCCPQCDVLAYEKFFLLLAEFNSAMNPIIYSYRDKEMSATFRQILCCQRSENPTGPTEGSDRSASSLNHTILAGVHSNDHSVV
MEASUREMENT_PROTOCOL: In vitro LPA1 calcium flux antagonist assay - Bioduro protocol
Assay type: cell-based
CONDITION_SUMMARY: CHO-K1 cells overexpressing human LPA1 and G15a; LPA challenge at EC80; calcium mobilization on FLIPR Tetra; read-out: IC50
Numbers only, as −log10 of the molar value.

Previously resolved entries follow.
[[record]]
compound = "COc1cc(-c2ccc(NC3(C(=O)O)CCOCC3)cc2COC2CCCC2)c(C)c(OC)c1C"
measured_value = 7.98

[[record]]
compound = "COc1cc(-c2ccc(NC3(C(=O)O)CCC(F)(F)CC3)cc2COC2CC2)c(F)c(OC)c1C"
measured_value = 7.63

[[record]]
compound = "CCOc1cc(OC)c(F)c(-c2ccc(NC3(C(=O)O)CCOCC3)cc2COC2CCCC2)c1"
measured_value = 6.86


Lab note: each compound below needs its pIC50 filled in.
1. COC(=O)N1CCC(Nc2cc(C)c(-c3cc(OC)cc(OC)c3)c(COC3CCCC3)c2)(C(=O)O)CC1
2. CCOc1c(C)ccc(-c2ccc(OC3(C(=O)O)CCOCC3)cc2COC2CC2)c1C
3. COc1c(C)ccc(-c2ccc(NC3(C(=O)O)CCOCC3)cc2COC2CCCC2)c1C
4. COc1cc(-c2ccc(NC3(C(=O)O)CCC(F)(F)CC3)cc2COC2CC2)cc(OC)c1C

[out]
[6.65, 7.35, 7.26, 7.16]

###

EXPERIMENTAL_TARGET: human LPA1 (Homo sapiens)
Construct: expressed in transfected cells; host or cells: CHO-K1
MEASUREMENT_PROTOCOL: In vitro LPA1 calcium flux antagonist assay - Bioduro protocol
Format: cell-based
CONDITION_SUMMARY: Table B3; CHO-K1 cells overexpressing human LPA1 and G15a, LPA challenge at EC80; read-out: Activity (IC50 class)
pIC50: −log10 of the molar value.
What pIC50 was measured for each of the following?

[[record]]
compound = "COc1ccc(C)c(-c2ccc(NC3(C(=O)O)CCOCC3)cc2COC2CCCC2)c1 [Compound 173]"
observed_property = "pIC50"
measured_value = "6.00 to 7.00"


Lab note: each compound below needs its pIC50 filled in.
1. CCCCOCc1cc(NC2(C(=O)O)CCOCC2)ccc1-c1cc(OC)c(C)c(OC)c1C [Compound 401]
2. COc1cc(-c2ccc(NCC(=O)O)cc2COC2Cc3ccccc3C2)cc(OC)c1C [Compound 108]
3. COc1cc(-c2c(C)cc(NC3(C(=O)O)CCOCC3)cc2COC2CCCC2)c(C)c(OC)c1C [Compound 149]
4. CCOc1c(C)ccc(-c2ccc(OC3(C(=O)O)CCOCC3)cc2COC2CC2)c1C [Compound 369]
5. CCOc1cc(-c2ccc(NCCC(=O)O)cc2COC2Cc3ccccc3C2)cc(OCC)c1C [Compound 113]
6. COCC1CC(Nc2ccc(-c3cc(OC)c(C)c(OC)c3)c(COC3Cc4ccccc4C3)c2)(C(=O)O)C1 (centres unmarked) [Compound 143]

[out]
1: > 7.00; 2: < 6.00; 3: > 7.00; 4: > 7.00; 5: < 6.00; 6: > 7.00

Lab note: each compound below needs its pIC50 filled in.
1. CCc1c(-c2ccc(NC3(C(=O)O)CCOCC3)cc2COC2CCCC2)cc(OC)c(C)c1OC [Compound 203]
2. CCOc1cccc(-c2ccc(NC3(C(=O)O)CCOCC3)cc2CCC2CCCC2)c1F [Compound 272]

[out]
1. > 7.00
2. > 7.00

Lab note: each compound below needs its pIC50 filled in.
1. COc1cc(-c2ccc(NC3(C(=O)O)CCOCC3)cc2COC2COc3ccccc32)c(F)c(OC)c1C (single isomer, unassigned) [Compound 223]
2. CCOc1cccc(-c2ccc(NC3(C(=O)O)CCC3)cc2COC2CC2)c1C(F)F [Compound 333]
3. COc1cc(-c2ccc(NC3(C(=O)O)CCOCC3)cc2COC2CCCC2)c(F)cc1C [Compound 319]
4. COc1cc(-c2ccc(NCCC(=O)O)cc2COCCc2ccccc2)cc(OC)c1C [Compound 106]
5. CCOc1cc(OC)cc(-c2ccc(NC3(C(=O)O)CCOCC3)cc2COC2CC2)c1 [Compound 316]

[out]
1. > 7.00
2. > 7.00
3. > 7.00
4. < 6.00
5. < 6.00

Lab note: each compound below needs its pIC50 filled in.
1. COc1cc(OC)c(Cl)c(-c2ccc(NC3(C(=O)O)CCOCC3)cc2COCC(C)C)c1 [Compound 398]
2. COc1cc(OC)c(Cl)c(-c2c(F)cc(NC3(C(=O)O)CCOCC3)cc2COC2CCCC2)c1 [Compound 174]
3. COc1cc(-c2ccc(NC3(C(=O)O)CCOCC3)cc2COC2CCCC2)cc(OC)c1C(C)=O [Compound 124]
4. COC(=O)N1CC(Nc2ccc(-c3cc(OC)c(C)c(OC)c3)c(COC3Cc4ccccc4C3)c2)(C(=O)O)C1 [Compound 129]
5. COc1cc(-c2ccc(NC3(C(=O)O)CCOCC3)cc2COC2(C)CCCC2)c(C)c(OC)c1C [Compound 212]

[out]
1: 6.00 to 7.00; 2: > 7.00; 3: > 7.00; 4: > 7.00; 5: > 7.00
